assay: reversal of MRP1-mediated doxorubicin resistance, pilot screen, H69AR cells, doxorubicin co-treatment (AID 601); settings: H69AR cells, CellTiter-Glo, 72 h; compound alone cytotoxicity; at 10 µM
Under this convention, 1 denotes viability strictly below 80% and 0 denotes viability at or above 80%.

Solved entries (count: 2):
compound	classification
COC(=O)c1sccc1NC(=O)c1csc(C)c1	1
CS(=O)(=O)c1ccc2nc(NC(=O)C3C4C=CC(C4)C3C(=O)O)sc2c1 (stereo unspecified)	0

Okay, now this compound:
[ask] Threshold test, viability < 80%: c1cn2cc(CSC3CCCCC3)nc2s1
[reply] 0

* * *

experiment: reversal of MRP1-mediated doxorubicin resistance, pilot screen, H69AR cells, doxorubicin co-treatment (AID 601); details: H69AR cells + 2 uM doxorubicin, CellTiter-Glo, 72 h; measured here: viability with 2 uM doxorubicin; at 10 µM; stronger effect = lower value
viability by entry:
Numbers only here, please. The scale is %.

Recorded viability, per entry:
compound	unit_annotation	viability
CCOC(=O)COc1ccc(S(=O)(=O)Nc2ccc3c(c2)OCO3)cc1	%	92.1
N#C/C(C(=O)N1CCOCC1)=C1/SC(Cc2ccccc2)C(=O)N1c1ccccc1 (stereo unspecified)	%	102
Cc1onc(-c2ccccc2Cl)c1C(=O)NCc1cccnc1	%	85.4
Cn1cccc1Cc1nnc(SCC(=O)Nc2ccccc2F)n1-c1ccc(F)cc1	%	101
Cc1nn(-c2ccccc2)c(Cl)c1C(=O)NCC(=O)O	%	111

Continue with the compound presented below.
Per the record, O=C(O)CC1=C(O)C(=O)N(c2ccccc2)C1c1ccccc1 (stereo unspecified) has viability of 94.1

* * *

Below, each entry is listed with its recorded viability.
experiment: reversal of MRP1-mediated doxorubicin resistance, pilot screen, H69AR cells, doxorubicin co-treatment (AID 601); conditions: H69AR cells, CellTiter-Glo, 72 h; compound alone cytotoxicity; at 10 µM
Express your answer in %, writing the number without its unit.

Below: 10 compounds and their reported viability.
compound	unit_annotation	viability
CCOC(=O)c1ccccc1NC(=O)CSc1nnc(COc2ccccc2C)n1C	%	78.7
COc1ccc(N2CCN(CCCNC(=O)C3(S(=O)(=O)c4ccc(Cl)cc4)CC3)CC2)cc1	%	83.1
COc1ccc(OCC(=O)N2CCN(C(=O)Cc3ccccc3)CC2)cc1	%	84.6
CCOC(=O)CC1(CC(=O)OCC)NC(=O)c2c(C)sc(C(=O)OCC)c2N1	%	101
Cn1nc(C(=O)N2CCOCC2)c2ccccc2c1=O	%	89.3
CCOC(=O)C1=C(C)Nc2ncnn2C1c1cc(OC)ccc1OC (stereo unspecified)	%	81.8
COc1ccc(C2C3=C(CC(C)(C)CC3=O)Oc3ncn4nc(-c5cccnc5)nc4c32)cc1 (stereo unspecified)	%	105
COCCOC(=O)c1c(C)oc2ccc(NS(=O)(=O)c3ccc(F)cc3)cc12	%	90.5
COc1cccc(N2CCN(Cc3nc(N)nc(Nc4ccccc4OC)n3)CC2)c1	%	77.4
O=C(NCC(F)(F)F)N1CCOCC1	%	100

For CCN1CCN(C(=O)c2ccc3c(=O)n(C4CCCC4)c(=S)[nH]c3c2)CC1 the compound record lists viability as 84.7

* * *

experiment: SK-BR-3 cell growth inhibitors, pilot screen, 24 h, human (AID 572); conditions: SK-BR-3 viability, CellTiter-Glo luminescence, at 10 µM, stronger effect = lower value;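 also: compound exposure lasted between 18 and 24 h rather than exactly 24 h; 100% = carrier-treated control wells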
The source made the active and inactive calls.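 How the source made its calls: active means viability at or below 10% of carrier control in both of two separate runs; inconclusive means viability at or below 10% in only one of the two runs; inactive means the rest.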
value_kind: viability

Below: 8 molecules and their reported viability.
molecule	value_kind	result
O=C(CN1CCOCC1)N1CCN(C(=O)CN2CCOCC2)CC1	viability	102% (inactive)
O=C(NCC(c1cccnc1)N1CCN(c2ccc(F)cc2)CC1)c1ccc(F)cc1 (centres undefined)	viability	90% (inactive)
Cc1cc(=O)[nH]c(=S)n1-c1ccccc1	viability	99.5% (inactive)
CCCCc1cc(=O)oc2cc(C)cc(OC(C)C(=O)O)c12 (centres undefined)	viability	116% (inactive)
O=C(OCC#CCSc1nnc(-c2ccncc2)o1)c1cccs1	viability	118% (inactive)
Cc1nc2sc(C(c3ccccc3)N3CCN(c4ccccc4F)CC3)c(O)n2n1 (centres undefined)	viability	91.5% (inactive)
CC(C)=CCCC(C)NC(=O)NC1CCCCC1 (centres undefined)	viability	91% (inactive)
COc1ccc(C(CNC(=O)c2cc(C)oc2C)N2CCOCC2)cc1 (centres undefined)	viability	126% (inactive)

The reported value for CC(=O)Nc1cccc(NC(=O)c2oc3ccccc3c2C)c1 in terms of viability is 81.5% (inactive)

GET /value?item= Nn1c(SCC(=O)Nc2ccc(F)cc2)nnc1-c1cccnc1 &field=viability returns 90.5% (inactive)

Lab note: O=C(C(c1ccccc1)c1ccccc1)N1CCN(Cc2ccccn2)CC1 gave viability of 81% (inactive)

// CCSc1nnc2c(n1)OC=Nc1ccc(Br)cc1-2 : viability value = 92.5% (inactive)

Per the records, this molecule ( C=CCOc1ccc(/C(O)=C2\C(=O)C(=O)N(CCOC)C2c2cccnc2)cc1 (centres undefined) ) has viability equal to 99% (inactive)

* * *

Each record here notes measured viability.
assay: HUVEC growth inhibition – cell-based, human, primary screen (AID 575); conditions: HUVEC proliferation, CellTiter-Glo luminescence, 72 h; at 10 µM; stronger effect = lower value;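 also: 100% = median of untreated cell wells with 0.1% DMSO on each plate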
Your answer is read as %, so omit the unit and give the number.

# example entries with known answers
compound	viability (%)
COc1ccc(S(=O)(=O)Nc2ccc(F)c(F)c2)cc1Cl	90.4
COc1ccc(CCNS(=O)(=O)c2ccc3oc(C(=O)O)c(C)c3c2)cc1OC	112
Cc1ccc(SCCNS(=O)(=O)c2ccc(F)cc2)cc1	78.8
CCCCOc1ccc(-c2nnn(CC(=O)NCc3ccco3)n2)cc1	57.3
CC(C)CCNC(=O)C(c1cccs1)N(CC1CCCO1)C(=O)Cn1nnc2ccccc21 (stereo unspecified)	96.2

The measured viability associated with NS(=O)(=O)c1ccc(NCc2c(F)cccc2Cl)cc1 reads 102

Input c1ccc(N2CCN(Cc3ccnc4ccccc34)CC2)cc1 . Output viability: 71.2

Field viability (entry COc1cc(NC(=O)C(C)Oc2ccccc2)c(C(=O)O)cc1OC (stereo unspecified) ) reads 96.4

The reported value for CC(C)(O)C1=NOC(c2ccccc2)C1 (stereo unspecified) in terms of viability is 76.2

Per the record, O=C(NCc1ccco1)c1cnn2c(C(F)(F)F)cc(-c3ccco3)nc12 has viability of 92.9

The compound listed as Nc1nonc1NC(=O)CSc1nc2ccccc2s1 shows viability equal to 91.2

* * *

# viability values compiled below
test: growth inhibitors of H69AR lung tumor, primary screen, human, duplicate replicates (AID 580); settings: H69AR lung tumor cells viability, ATP luminescence, 72 h; at 10 µM; stronger effect = lower value;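 also: 100% = mean luminescence of untreated wells and 0% = no signal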
Field: numeric (%). Do not append units.

molecule	value_kind	unit_annotation	numeric_value
Cc1ccccc1NC(=O)N1C2CCCC1CC(NC(=O)C1CC1)C2 (stereo not given)	viability	%	104

Sample CC(C(=O)NC1CCCCCC1)N(c1ccccc1)S(C)(=O)=O (stereo not given) ; viability observed: 109

Short answer for CC1(C)OC(=O)C(=CNC(CCC(N)=O)C(=O)O)C(=O)O1 (stereo not given) : viability was 86.2

Consider CC(C)NC(=O)CSCc1ccccc1Cl . Its measured viability is 94.8

Field viability (entry COc1cc(C(=O)Nc2ccc3c(c2)C(=O)N(CCC(=O)O)C3=O)cc(OC)c1OC ) reads 106

Note to self: viability recorded for CCCCOc1ccc(NC(=O)Cn2c(=O)ccc3c(C)cc(C)nc32)cc1 was 91.2

* * *

test: growth inhibitors of H69AR lung tumor, primary screen, human, duplicate replicates (AID 580); conditions: H69AR lung tumor cells viability, ATP luminescence, 72 h; at 10 µM; stronger effect = lower value;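 also: 100% = mean luminescence of untreated wells and 0% = no signal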
Reported viability values for a set of compounds
Only the number, expressed in %, is required.

Past entries and their recorded results:
compound	numeric_value
O=C(CN(c1ccc(F)cc1)S(=O)(=O)c1ccc2c(c1)OCCO2)Nc1ccc2c(c1)OCO2	99.8
NC(=O)COC(=O)CNC(=O)c1ccc(Cl)cc1	101
O=C(O)CC1NC(=O)N(c2ccccc2)C1=O (centres undefined)	99.3
COc1ccc(S(=O)(=O)N2CCN(C3CCCCCCC3)CC2)cc1	93.9
COc1ccc(CC(=O)NC2CCN(CC(=O)Nc3ccc4c(c3)OCCO4)CC2)cc1OC	106
COc1ccccc1C(=O)N1CCNC(=O)C1CC(=O)Nc1ccc(Cl)cc1 (centres undefined)	95.5
CSc1cccc(NC(=O)C2CCCN2S(=O)(=O)c2ccc3c(c2)CCC(=O)N3)c1 (centres undefined)	89
CCC(OC(=O)c1cccs1)C(=O)NCc1ccco1 (centres undefined)	91.4
COC(=O)CC1SC(=O)NC1=O (centres undefined)	105
c1cncc(-c2nnc(-c3ccco3)o2)c1	105

The record that follows has no viability shown yet.
Entry under test: CCOc1ccc(C(=O)Nc2ccc(N3CCN(C)CC3)cc2)cc1Br . Its viability was 81.8
